Hello, the source for this data is paper PMC6152127, in case you need it.

# Test system: Aspergillus fumigates (NCIM-902)
# assay.text: In vitro antifungal activity, MIC, agar method (CLSI)
# Format: cell-based
# measurement.conditions: NCIM902, average of three readings
For each entry below, report its MIC value.
Answers are plain numbers, in µg/mL.

# count of solved cases: 3
- compound: "O=c1oc2ccccc2c(O)c1C(c1ccc(F)cc1F)N(C1CCCCC1)C1CCCCC1 (centres unmarked)"
  reading.unit: "µg/mL"
  MIC: 28
- compound: "O=c1oc2ccccc2c(O)c1C(c1ccccc1O)N(C1CCCCC1)C1CCCCC1 (centres unmarked)"
  reading.unit: "µg/mL"
  MIC: 55
- compound: "O=c1oc2ccccc2c(O)c1C(c1ccco1)N(C1CCCCC1)C1CCCCC1 (centres unmarked)"
  reading.unit: "µg/mL"
  MIC: 65

// each listed compound needs a value for MIC
1. O=c1oc2ccccc2c(O)c1C(c1c(Cl)cccc1Cl)N(C1CCCCC1)C1CCCCC1 (centres unmarked)
2. Clc1ccc(COC(Cn2ccnc2)c2ccc(Cl)cc2Cl)c(Cl)c1 (centres unmarked) [Miconazole, reference compound]
3. O=c1oc2ccccc2c(O)c1C(c1ccccn1)N(C1CCCCC1)C1CCCCC1 (centres unmarked)
4. O=c1oc2ccccc2c(O)c1C(c1ccc(F)cc1)N(C1CCCCC1)C1CCCCC1 (centres unmarked)
5. O=c1oc2ccccc2c(O)c1C(c1ccc(Cl)cc1)N(C1CCCCC1)C1CCCCC1 (centres unmarked)

Response:
1: 28; 2: 35; 3: 45; 4: 28; 5: 30
